// data source = PubChem BioAssay AID1159580

experiment summary: chemical genetic growth profiling, strain panel (AID 1159580);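 note: tested at 20 µM; growth read once vehicle control cultures reached saturation at 30 °C; 1 = growth at the plate median or of vehicle wells; lower values mean less growth of the strain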
conditions used: S. cerevisiae deletion strains, growth OD, locus YKL085W, strain MDH1, active compounds read low
Out of some 5,500 compounds screened, about 2,000 (36%) were called active. Inconclusive results (about 18%) are left out. The list shows a part of the results.
quantity name: normalized growth

Exam item: Please report the recorded normalized growth for CC1(C)C2CC(=O)[C@]3(C)C(CC[C@@]4(C)[C@H](c5ccoc5)OC(=O)C5OC543)[C@@]2(C)[C@@H](O)C[C@H]1O (stereo not given in full) .
Marked response: 0.989 (inactive)

Exam item: Please report the recorded normalized growth for `O=C(O[C@@H]1Cc2c(O)cc(O)cc2O[C@@H]1c1cc(O)c(=O)c2c(O)c(O)cc([C@H]3Oc4cc(O)cc(O)c4C[C@H]3OC(=O)c3cc(O)c(O)c(O)c3)c2c1)c1cc(O)c(O)c(O)c1` .
Marked response: 1.05 (inactive)

Exam item: Please report the recorded normalized growth for CC1(C)C2CC(=O)[C@]3(C)C(CC[C@@]4(C)[C@H](c5ccoc5)OC(=O)[C@H]5O[C@]543)[C@@]2(C)C(=O)C[C@H]1O (stereo not given in full) .
Marked response: 1 (inactive)

Exam item: Please report the recorded normalized growth for CCCCCCCCCCCCCCCCCC(=O)OC(CC(=O)O)C[N+](C)(C)C (stereo not given) .
Marked response: 0.56 (active)

Exam item: Please report the recorded normalized growth for C[N+](C)(C)CC(O)CC(=O)O (stereo not given) .
Marked response: 1.02 (inactive)

Exam item: Please report the recorded normalized growth for CC1(C)C(=O)C=C[C@@]2(C)C1C[C@@H](O)[C@]1(C)C2CC[C@@]2(C)[C@H](c3ccoc3)OC(=O)[C@H]3O[C@]321 (stereo not given in full) .
Marked response: 0.973 (inactive)

Exam item: Please report the recorded normalized growth for CC(C)N(CCC(C(N)=O)(c1ccccc1)c1ccccn1)C(C)C (stereo not given) .
Marked response: 0.988 (inactive)

Exam item: Please report the recorded normalized growth for `O=c1c(O)c(-c2ccc(O)cc2O)oc2cc(O)cc(O)c12` .
Marked response: 0.999 (inactive)

Exam item: Please report the recorded normalized growth for CC(=O)O[C@@H]1CC2C(C)(C)C(=O)C=C[C@]2(C)C2CC[C@@]3(C)[C@H](c4ccoc4)OC(=O)[C@H]4O[C@]43[C@@]21C (stereo not given in full) .
Marked response: 1.03 (inactive)

Exam item: Please report the recorded normalized growth for `COc1ccc(-c2cc(=O)c3c(O)cc(O[C@@H]4O[C@H](CO[C@H]5O[C@H](C)[C@@H](O)[C@H](O)[C@@H]5O)[C@@H](O)[C@H](O)[C@H]4O)cc3o2)cc1O` .
Marked response: 0.991 (inactive)

Exam item: Please report the recorded normalized growth for `CC1(C)O[C@H]2CC(=O)OC[C@]23[C@H]2CC[C@@]4(C)[C@H](c5ccoc5)OC(=O)[C@H]5O[C@]54[C@]2(C)C(=O)C[C@@H]13` .
Marked response: 0.992 (inactive)

Exam item: Please report the recorded normalized growth for `COc1ccc(-c2oc3cc(O[C@H]4O[C@H](CO)[C@@H](O)[C@H](O)[C@H]4O)c(OC)c(O)c3c(=O)c2OC)cc1O` .
Marked response: 0.994 (inactive)

Exam item: Please report the recorded normalized growth for `O=c1cc(-c2ccc(O)cc2)oc2cc(O[C@@H]3O[C@H](CO)[C@@H](O)[C@H](O)[C@H]3O)cc(O)c12` .
Marked response: 0.974 (inactive)

Exam item: Please report the recorded normalized growth for CC1O[C@@H](Oc2c(-c3ccc(O)c(O)c3)oc3cc(O)cc(O)c3c2=O)[C@H](O)[C@H](O)[C@H]1O (stereo not given in full) .
Marked response: 1.03 (inactive)

Exam item: Please report the recorded normalized growth for CC1(C)C(=O)C=C[C@@]2(C)C1CC(=O)[C@]1(C)C2CC[C@@]2(C)[C@H](c3ccoc3)OC(=O)[C@H]3O[C@]321 (stereo not given in full) .
Marked response: 0.992 (inactive)
